System Under Test: Nuclear receptor subfamily 1 group I member 2 (Homo sapiens, UniProt O75469)
Sequence (O75469 whole entry): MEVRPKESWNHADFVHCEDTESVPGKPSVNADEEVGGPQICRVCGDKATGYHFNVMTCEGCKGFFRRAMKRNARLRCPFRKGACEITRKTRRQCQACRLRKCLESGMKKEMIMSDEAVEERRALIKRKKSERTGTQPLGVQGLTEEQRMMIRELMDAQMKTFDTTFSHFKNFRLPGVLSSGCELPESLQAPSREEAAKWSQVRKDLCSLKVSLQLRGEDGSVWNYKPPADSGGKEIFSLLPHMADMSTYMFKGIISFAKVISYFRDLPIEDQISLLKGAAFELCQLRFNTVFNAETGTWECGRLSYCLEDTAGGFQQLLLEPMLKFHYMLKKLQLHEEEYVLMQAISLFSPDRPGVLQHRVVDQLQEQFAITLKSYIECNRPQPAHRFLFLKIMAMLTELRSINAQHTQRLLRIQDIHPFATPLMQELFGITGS
Assay Procedure: Activation of PXR in human LS180 cells assessed as P-gp induction by measuring intracellular accumulation of rhodamine 123 preincubated for 48 hrs followed by rhodamine 123 addition after 40 mins and measured after 90 mins by fluorescence assay
pEC50: −log10 of the molar value.
Observed Property: pEC50

# Entry Smiles, pEC50
measured = [
    ("CCOP(=O)(OCC)C(=Cc1ccccc1)P(=O)(OCC)OCC", 6.57),
    ("CCOP(=O)(OCC)C(=Cc1c2ccccc2cc2ccccc12)P(=O)(OCC)OCC", 6.54),
]
